Here, each record is paired with measured viability, T/C data.
# Tested on: 349418-098-R-PDC complex spheroid viability
# Test details: Anticancer human tumor 349418-098-R-PDC patient-derived lung adenocarcinoma cell line growth inhibition [RAS]
# Study conditions: second compound 0.00949 µM; first compound 0.1 µM; stronger effect = lower value

- Compound: "Nc1ccn(C2OC(CO)C(O)C2(F)F)c(=O)n1 (stereo not drawn) + CCn1c(-c2cccnc2C(C)OC)c2c3cc(ccc31)N1CCOC(CC(NC(=O)C(C(C)C)N(C)C(=O)C3(F)CCN(C(=O)C#CC(C)(C)N(C)C)CC3)C(=O)N3CCCC(N3)C(=O)OCC(C)(C)C2)C1"
  viability, T/C (%): 4.89
- Compound: "C[C@@H](NC(=O)c1ncnc(N)c1Cl)c1ncc(C(=O)Nc2cc(C(F)(F)F)c(Cl)cn2)s1 + CCn1c(-c2cccnc2C(C)OC)c2c3cc(ccc31)N1CCOC(CC(NC(=O)C(C(C)C)N(C)C(=O)C3(F)CCN(C(=O)C#CC(C)(C)N(C)C)CC3)C(=O)N3CCCC(N3)C(=O)OCC(C)(C)C2)C1"
  viability, T/C (%): 92.5
- Compound: "CCN1CCN(Cc2ccc(Nc3ncc(F)c(-c4cc(F)c5nc(C)n(C(C)C)c5c4)n3)nc2)CC1 + CCn1c(-c2cccnc2C(C)OC)c2c3cc(ccc31)N1CCOC(CC(NC(=O)C(C(C)C)N(C)C(=O)C3(F)CCN(C(=O)C#CC(C)(C)N(C)C)CC3)C(=O)N3CCCC(N3)C(=O)OCC(C)(C)C2)C1"
  viability, T/C (%): 22.3
- Compound: "CCC(CC)c1cc(NC2CCC(N)C2)n2nccc2n1 (stereo not drawn) + CCn1c(-c2cc(N3CCN(C)CC3)cnc2C(C)OC)c2c3cc(ccc31)-c1csc(n1)CC(NC(=O)C1CC1C)C(=O)N1CCCC(N1)C(=O)OCC(C)(C)C2"
  viability, T/C (%): 94.3
- Compound: "C=CC(=O)Nc1cc(Nc2nccc(-c3cn(C)c4ccccc34)n2)c(OC)cc1N(C)CCN(C)C + CCn1c(-c2cc(N3CCN(C)CC3)cnc2C(C)OC)c2c3cc(ccc31)-c1csc(n1)CC(NC(=O)C1CC1C)C(=O)N1CCCC(N1)C(=O)OCC(C)(C)C2"
  viability, T/C (%): 75.8
- Compound: "CC(=O)OC12COC1CC(O)C1(C)C(=O)C(O)C3=C(C)C(OC(=O)C(O)C(NC(=O)OC(C)(C)C)c4ccccc4)CC(O)(C(OC(=O)c4ccccc4)C21)C3(C)C (stereo not drawn) + CCn1c(-c2cccnc2C(C)OC)c2c3cc(ccc31)N1CCOC(CC(NC(=O)C(C(C)C)N(C)C(=O)C3(F)CCN(C(=O)C#CC(C)(C)N(C)C)CC3)C(=O)N3CCCC(N3)C(=O)OCC(C)(C)C2)C1"
  viability, T/C (%): 13.6
- Compound: "C[C@@H](NC(=O)c1ncnc(N)c1Cl)c1ncc(C(=O)Nc2cc(C(F)(F)F)c(Cl)cn2)s1 + CCn1c(-c2cc(N3CCN(C)CC3)cnc2C(C)OC)c2c3cc(ccc31)-c1csc(n1)CC(NC(=O)C1CC1C)C(=O)N1CCCC(N1)C(=O)OCC(C)(C)C2"
  viability, T/C (%): 90.4
- Compound: "Nc1ccn(C2OC(CO)C(O)C2(F)F)c(=O)n1 (stereo not drawn) + CCn1c(-c2cc(N3CCN(C)CC3)cnc2C(C)OC)c2c3cc(ccc31)-c1csc(n1)CC(NC(=O)C1CC1C)C(=O)N1CCCC(N1)C(=O)OCC(C)(C)C2"
  viability, T/C (%): 4.39

---

# System: 349418-098-R-PDC complex spheroid viability
# Test details: Anticancer human tumor 349418-098-R-PDC cell line growth inhibition [RAS]; active means viability on the fitted dose curve at most 10% of control; inactive means the rest;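 also: spheroids exposed to compound for seven days before viability readout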
# Study conditions: second compound 1 µM; first compound 0.316 µM
# Text: RAS pathway inhibitors in Combinations in Complex Spheroids A high-throughput screen of multi-cell type tumor spheroids was designed to identify active combinations of RAS pathway inhibitors and targeted small molecules. Complex spheroids include a stromal component modeled by human endothelial cells (HUVEC) and fibroblasts modeled by human mesenchymal stem cells (MSCs). […] Compounds. […] If the clinical Cmax for an agent had not been determined, the highest concentration tested was 10 microM. […]
Outcome codes: active, inactive

- Compound: "C=CC(=O)N1CCN(c2nc(OCC3CCCN3C)nc3c(F)c(-c4nc(N)cc(C)c4C(F)(F)F)c(Cl)cc23)C(C)C1 (stereo not given) + C#Cc1c(F)ccc2cc(O)cc(-c3ncc4c(N5CC6CCC(C5)N6)nc(OCC56CCCN5CC(F)C6)nc4c3F)c12"
  Label value: "inactive"
- Compound: "C=CC(=O)Nc1cc(Nc2nccc(-c3cn(C)c4ccccc34)n2)c(OC)cc1N(C)CCN(C)C + C#Cc1c(F)ccc2cc(O)cc(-c3ncc4c(N5CC6CCC(C5)N6)nc(OCC56CCCN5CC(F)C6)nc4c3F)c12"
  Label value: "inactive"
- Compound: "CC(Nc1ccc2c(c1)OCCn1cc(N3C(=O)OCC3C(F)F)nc1-2)C(N)=O (stereo not given) + C#Cc1c(F)ccc2cc(O)cc(-c3ncc4c(N5CC6CCC(C5)N6)nc(OCC56CCCN5CC(F)C6)nc4c3F)c12"
  Label value: "inactive"
- Compound: "O=C(c1ccc(F)c(F)c1Nc1ccc(I)cc1F)N1CC(O)([C@@H]2CCCCN2)C1 + C=CC(=O)N1CCN(c2nc(OCC3CCCN3C)nc3c(F)c(-c4nc(N)cc(C)c4C(F)(F)F)c(Cl)cc23)C(C)C1"
  Label value: "active"
- Compound: "CCN1CCN(Cc2ccc(Nc3ncc(F)c(-c4cc(F)c5nc(C)n(C(C)C)c5c4)n3)nc2)CC1 + C=CC(=O)N1CCN(c2nc(OCC3CCCN3C)nc3c(F)c(-c4nc(N)cc(C)c4C(F)(F)F)c(Cl)cc23)C(C)C1"
  Label value: "inactive"

---

Here, each record is paired with measured viability, T/C data.
# Tested on: 349418-098-R-PDC complex spheroid viability
# Test details: Anticancer human tumor 349418-098-R-PDC cell line growth inhibition [RAS];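 also: spheroids exposed to compound for seven days before viability readout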
# Study conditions: second compound 0.0949 µM; first compound 1 µM; stronger effect = lower value
Measured metric: viability, T/C (%)

- Compound: "CCN1CCN(Cc2ccc(Nc3ncc(F)c(-c4cc(F)c5nc(C)n(C(C)C)c5c4)n3)nc2)CC1 + CCn1c(-c2cc(N3CCN(C)CC3)cnc2C(C)OC)c2c3cc(ccc31)-c1csc(n1)CC(NC(=O)C1CC1C)C(=O)N1CCCC(N1)C(=O)OCC(C)(C)C2"
  Quantitative readout: 12.8
- Compound: "C[C@@H](NC(=O)c1ncnc(N)c1Cl)c1ncc(C(=O)Nc2cc(C(F)(F)F)c(Cl)cn2)s1 + CCn1c(-c2cccnc2C(C)OC)c2c3cc(ccc31)N1CCOC(CC(NC(=O)C(C(C)C)N(C)C(=O)C3(F)CCN(C(=O)C#CC(C)(C)N(C)C)CC3)C(=O)N3CCCC(N3)C(=O)OCC(C)(C)C2)C1"
  Quantitative readout: 72.4
- Compound: "CC(=O)OC12COC1CC(O)C1(C)C(=O)C(O)C3=C(C)C(OC(=O)C(O)C(NC(=O)OC(C)(C)C)c4ccccc4)CC(O)(C(OC(=O)c4ccccc4)C21)C3(C)C (stereo not drawn) + CCn1c(-c2cc(N3CCN(C)CC3)cnc2C(C)OC)c2c3cc(ccc31)-c1csc(n1)CC(NC(=O)C1CC1C)C(=O)N1CCCC(N1)C(=O)OCC(C)(C)C2"
  Quantitative readout: 14.3
- Compound: "CC(C)NCC(C(=O)N1CCN(c2ncnc3c2C(C)CC3O)CC1)c1ccc(Cl)cc1 (stereo not drawn) + CCn1c(-c2cc(N3CCN(C)CC3)cnc2C(C)OC)c2c3cc(ccc31)-c1csc(n1)CC(NC(=O)C1CC1C)C(=O)N1CCCC(N1)C(=O)OCC(C)(C)C2"
  Quantitative readout: 54.5
- Compound: "CC1(O)CCCC1n1c(=O)c(C(F)F)cc2cnc(NC3CCN(S(C)(=O)=O)CC3)nc21 (stereo not drawn) + CCn1c(-c2cc(N3CCN(C)CC3)cnc2C(C)OC)c2c3cc(ccc31)-c1csc(n1)CC(NC(=O)C1CC1C)C(=O)N1CCCC(N1)C(=O)OCC(C)(C)C2"
  Quantitative readout: 23.9
- Compound: "CCC(CC)c1cc(NC2CCC(N)C2)n2nccc2n1 (stereo not drawn) + CCn1c(-c2cc(N3CCN(C)CC3)cnc2C(C)OC)c2c3cc(ccc31)-c1csc(n1)CC(NC(=O)C1CC1C)C(=O)N1CCCC(N1)C(=O)OCC(C)(C)C2"
  Quantitative readout: 50.7
- Compound: "NC1c2ccccc2OC12CCN(c1cnc3c(N4CCCc5ncccc54)n[nH]c3n1)CC2 (stereo not drawn) + CCn1c(-c2cc(N3CCN(C)CC3)cnc2C(C)OC)c2c3cc(ccc31)-c1csc(n1)CC(NC(=O)C1CC1C)C(=O)N1CCCC(N1)C(=O)OCC(C)(C)C2"
  Quantitative readout: 107
- Compound: "Cc1nc(N2CCC3(CC2)COC(C)C3N)c(CO)nc1Sc1ccnc(N)c1Cl (stereo not drawn) + CCn1c(-c2cc(N3CCN(C)CC3)cnc2C(C)OC)c2c3cc(ccc31)-c1csc(n1)CC(NC(=O)C1CC1C)C(=O)N1CCCC(N1)C(=O)OCC(C)(C)C2"
  Quantitative readout: 92
